Biological target: T1, ∆Impα3, truncated species of human importin α3 (residues 64-521) depleted of the IBB (human, UniProt O00629 64-521)
T1 construct: source: E. coli BL21 (DE3), purified (codon-optimized)
T1 sequence (looked up): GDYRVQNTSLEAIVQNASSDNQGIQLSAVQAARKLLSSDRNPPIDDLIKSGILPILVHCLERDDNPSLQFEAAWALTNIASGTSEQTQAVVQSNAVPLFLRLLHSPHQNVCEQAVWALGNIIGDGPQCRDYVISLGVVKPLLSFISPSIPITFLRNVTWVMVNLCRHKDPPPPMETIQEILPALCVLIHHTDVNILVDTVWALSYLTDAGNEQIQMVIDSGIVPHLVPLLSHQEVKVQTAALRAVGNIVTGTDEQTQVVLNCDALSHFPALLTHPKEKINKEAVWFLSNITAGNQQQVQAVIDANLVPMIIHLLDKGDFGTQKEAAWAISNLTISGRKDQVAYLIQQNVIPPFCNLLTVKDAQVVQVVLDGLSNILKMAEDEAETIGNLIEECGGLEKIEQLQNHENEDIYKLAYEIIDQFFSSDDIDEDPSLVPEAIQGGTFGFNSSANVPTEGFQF
Assay: other fluorescence titration; importin (0-10 μM) added to a fixed concentration of NUPR1L (8 μM) or NLS-NUPR1L (8.5 μM); 50 mM phosphate buffer, pH 7.0, 298 K; excitation at 280 nm; apparent dissociation constants
Details: both partners purified
pKd: −log10 of the molar value.
property name: pKd

binder: Ac-RTRREQALRTNWPAPGGHERKVAQ-NH2 (NUPR1L residues Arg51 to Gln74, the predicted NLS region; numbering as in intact NUPR1L; also called NLS-NUNPR1L; source: synthetic peptide (NZYtech, purity of 95%)) [NLS-NUPR1L, peptide of the nuclear localization sequence of NUPR1L (residues 51-74)]
property name: pKd
measured: 5.30
